target: HLA-B*18:01; experiment: IEDB peptide-MHC binding, purified MHC/competitive/fluorescence; filed as Kd, often an IC50 or EC50 that approximates it; bounds were set here for any values at or beyond the usual limits of such assays; details: source organism: Ephydatia fluviatilis
pKd: −log10 of the molar value.
recordedEndpoint: pKd

What pKd value was documented for this sequence, TLKPGTMSV ?
≤ 4.70

###

target: HLA-A*11:01; experiment: IEDB peptide-MHC binding, purified MHC/direct/fluorescence; filed as Kd, often an IC50 or EC50 that approximates it; bounds were set here for any values at or beyond the usual limits of such assays; details: source organism: Coxiella burnetii
recordedEndpoint: Kd

What Kd value was documented for this sequence, EEMPLVWDL ?
≥ 20 µM

###

molecular target: HLA-A*03:01; test: IEDB peptide-MHC binding, purified MHC/competitive/fluorescence; filed as Kd, often an IC50 or EC50 that approximates it; bounds were set here for any values at or beyond the usual limits of such assays; settings: source organism: Influenza A virus (A/chicken/Fujian/25/00(H9N2))
recordedEndpoint: Kd (µM)
One number for each entry, in µM.

Under HLA-A*03:01: Kd value of RMKWMMAMR ?
0.044

###

molecular target: HLA-A*11:01; test: IEDB peptide-MHC binding, purified MHC/competitive/radioactivity; filed as Kd, often an IC50 or EC50 that approximates it; bounds were set here for any values at or beyond the usual limits of such assays; details: source organism: SARS coronavirus Tor2
pKd: −log10 of the molar value.
Classification field: y = pKd at or over 7; n = pKd under 7.

Please check the record AIDAYPLTK and state if its pKd is at or above 7.
y

Please do the same for NQVIVNNLDK as well.
n

Please do the same for KFVFPLNSK as well.
n

Please do the same for KSKSFNHVLK as well.
y

Please do the same for LVLLILMTAR as well.
n

Please do the same for VFAYVGCYNK as well.
n

Please do the same for AAAYFVGYLK as well.
y

Please do the same for GANYLGKPK as well.
n

###

molecular target: HLA-B*15:09; test: IEDB peptide-MHC binding, purified MHC/direct/fluorescence; filed as Kd, often an IC50 or EC50 that approximates it; bounds were set here for any values at or beyond the usual limits of such assays; settings: source organism: Brucella suis 1330
recordedEndpoint: Kd

Under HLA-B*15:09: Kd value of GLAEKPNDY ?
≥ 20 µM

###

target: HLA-A*31:01; test: IEDB peptide-MHC binding, purified MHC/direct/fluorescence; filed as Kd, often an IC50 or EC50 that approximates it; bounds were set here for any values at or beyond the usual limits of such assays; settings: source organism: Stutzerimonas stutzeri
pKd: −log10 of the molar value.
recordedEndpoint: pKd

What pKd value was documented for this sequence, GRGQILLGK ?
≤ 4.70

###

biological target: HLA-B*18:01; assay: IEDB peptide-MHC binding, purified MHC/competitive/fluorescence; filed as Kd, often an IC50 or EC50 that approximates it; bounds were set here for any values at or beyond the usual limits of such assays; conditions: source organism: Vaccinia virus Tian Tan
recordedEndpoint: Kd

What Kd value was documented for this sequence, KVFFGPIYY ?
≥ 20 µM

###

target: HLA-B*58:01; assay: IEDB peptide-MHC binding, purified MHC/competitive/radioactivity; filed as Kd, often an IC50 or EC50 that approximates it; bounds were set here for any values at or beyond the usual limits of such assays; settings: source organism: Dengue virus 2 Jamaica/1409/1983
Please provide measured pKd for the entries that follow.
Answers are plain numbers, as −log10 of the molar value.

1) RAVHADMGYW ... 9.63
2) KSIEDNPEI ... 8.26

What pKd value was documented for this sequence, TASILLWYAQ ?
6.00

###

biological target: HLA-A*26:01; experiment: IEDB peptide-MHC binding, purified MHC/competitive/radioactivity; filed as Kd, often an IC50 or EC50 that approximates it; bounds were set here for any values at or beyond the usual limits of such assays; conditions: source organism: Dengue virus 3 Martinique/1243/1999
recordedEndpoint: Kd

What Kd value was documented for this sequence, RTNAAMGAVF ?
≥ 57.3 µM

###

target: HLA-B*44:02; assay: IEDB peptide-MHC binding, purified MHC/direct/fluorescence; filed as Kd, often an IC50 or EC50 that approximates it; bounds were set here for any values at or beyond the usual limits of such assays; settings: source organism: Yersinia pestis Nepal516
recordedEndpoint: Kd

Fill in Kd for each of the 2 sequences listed.
1. AFASLQDML
2. YLHRDIFDI

1. ≥ 20 µM
2. ≥ 20 µM

###

biological target: HLA-B*44:02; test: IEDB peptide-MHC binding, purified MHC/competitive/radioactivity; filed as Kd, often an IC50 or EC50 that approximates it; bounds were set here for any values at or beyond the usual limits of such assays; conditions: source organism: Dengue virus 2 Peru/IQT2913/1996
recordedEndpoint: pKd
Answers are plain numbers, as −log10 of the molar value.

Under HLA-B*44:02: pKd value of GESSPNPTV ?
6.49

###

molecular target: HLA-A*25:01; assay: IEDB peptide-MHC binding, purified MHC/competitive/fluorescence; filed as Kd, often an IC50 or EC50 that approximates it; bounds were set here for any values at or beyond the usual limits of such assays; settings: source organism: Entamoeba histolytica HM-1:IMSS
pKd: −log10 of the molar value.
recordedEndpoint: pKd

Under HLA-A*25:01: pKd value of LICYQIEYI ?
≤ 4.70

###

target: HLA-B*08:01; test: IEDB peptide-MHC binding, purified MHC/competitive/radioactivity; filed as Kd, often an IC50 or EC50 that approximates it; bounds were set here for any values at or beyond the usual limits of such assays; details: source organism: Vaccinia virus WR
recordedEndpoint: Kd (nM)
One number for each entry, in nM.

Examples with their reported Kd follow.
1) FSNFSTSHI ... 3110
2) LSTTRFQSM ... 3970
3) YRPLHFQYV ... 245
4) CINVRRCAL ... 6.94
5) NLAERFCTE ... 1900

Fill in Kd for each of the 3 sequences listed.
1. SMISRHCCI
2. KAFNHASVK
3. GFMRFFQLL

1: 1.25; 2: 751; 3: 2.39

###

target: HLA-A*02:01; assay: IEDB peptide-MHC binding, purified MHC/competitive/fluorescence; filed as Kd, often an IC50 or EC50 that approximates it; bounds were set here for any values at or beyond the usual limits of such assays; conditions: source organism: Vaccinia virus WR 65-16
recordedEndpoint: pKd
Give bare numbers, as −log10 of the molar value.

What pKd value was documented for this sequence, VLFRLENHA ?
7.25

###

target: HLA-B*15:01; experiment: IEDB peptide-MHC binding, purified MHC/competitive/fluorescence; filed as Kd, often an IC50 or EC50 that approximates it; bounds were set here for any values at or beyond the usual limits of such assays; details: source organism: Vaccinia virus Tian Tan
recordedEndpoint: Kd (nM)
Answers are plain numbers, in nM.

What Kd value was documented for this sequence, KVFFGPIYY ?
423

###

target: HLA-A*29:02; assay: IEDB peptide-MHC binding, purified MHC/competitive/fluorescence; filed as Kd, often an IC50 or EC50 that approximates it; bounds were set here for any values at or beyond the usual limits of such assays; conditions: source organism: Giardia lamblia ATCC 50803
recordedEndpoint: pKd
Numbers only, as −log10 of the molar value.

What pKd value was documented for this sequence, ELLDHLLLF ?
7.79

###

molecular target: HLA-B*27:05; test: IEDB peptide-MHC binding, purified MHC/direct/fluorescence; filed as Kd, often an IC50 or EC50 that approximates it; bounds were set here for any values at or beyond the usual limits of such assays; settings: source organism: Brucella abortus
recordedEndpoint: Kd

What Kd value was documented for this sequence, GLAEKPNDY ?
≥ 20 µM

###

biological target: HLA-B*15:01; test: IEDB peptide-MHC binding, purified MHC/competitive/fluorescence; bounds were set here for any values at or beyond the usual limits of such assays; details: source organism: Vaccinia virus WR
recordedEndpoint: IC50
Express your answer as a number followed by its unit.

What IC50 value was documented for this sequence, GSLFTEQAF ?
5.94 µM

###

target: HLA-A*26:01; assay: IEDB peptide-MHC binding, purified MHC/competitive/fluorescence; filed as Kd, often an IC50 or EC50 that approximates it; bounds were set here for any values at or beyond the usual limits of such assays; conditions: source organism: Entamoeba dispar SAW760
recordedEndpoint: Kd

What Kd value was documented for this sequence, KGFFRVFKK ?
≥ 20 µM

###

target: HLA-A*02:06; experiment: IEDB peptide-MHC binding, purified MHC/competitive/radioactivity; filed as Kd, often an IC50 or EC50 that approximates it; bounds were set here for any values at or beyond the usual limits of such assays; settings: source organism: Mammarenavirus whitewaterense
recordedEndpoint: pKd
Numbers only, as −log10 of the molar value.

What pKd value was documented for this sequence, LNASYITPYV ?
7.42
